Assay: Simulated Gastric Fluid (SGF) Stability Assay
Type: in vitro ADME
Conditions: simulated gi fluid; porcine pepsin, pH 2, 37° C.; dimers, Table 7
Procedure: Simulated Gastric Fluid (SGF) Stability Assays Studies were carried out in simulated gastric fluid (SGF) to evaluate intestinal stability of the peptide molecules of the instant invention. […] Aliquots of the supernatant were removed, diluted 1:1 into distilled water containing internal standard, and analyzed by LCMS/MS. Percent remaining at each timepoint was calculated based on the peak area response ratio of test to compound to internal standard. […]
Where a SMILES comes first, the peptide text is derived from it.
measured-endpoint: half-life

{"compound": "CC(C)C[C@@H]1NC(=O)[C@H]([C@@H](C)O)NC(=O)[C@H](CC(=O)O)NC(=O)[C@H](CO)NC(=O)[C@H](CCCNC(=N)N)N(C)C(=O)c2ccccc2CSC(C)(C)[C@@H](C(=O)N[C@@H](Cc2c[nH]c3ccccc23)C(=O)N[C@H](CCC(=O)O)C(=O)N[C@H](CCCCN)C(N)=O)NC1=O [compound 150] (HELM PEPTIDE1{[meR].S.D.T.L.[Pen].W.[dE].[dK].[am]}|CHEM1{[O=C(c1ccccc1C[*:2])[*:1]]}$PEPTIDE1,CHEM1,1:R1-1:R1|PEPTIDE1,CHEM1,6:R3-1:R2$$$V2.0)", "half-life": "> 3 h"}

Continue with the compound presented below.
Given item CC(C)C[C@@H]1NC(=O)[C@H]([C@@H](C)O)NC(=O)[C@H](CC(=O)O)NC(=O)[C@H](CO)NC(=O)[C@H](CCCNC(=N)N)N(C)C(=O)c2ccccc2CSC(C)(C)[C@@H](C(=O)N[C@@H](Cc2ccccc2)C(=O)N[C@H](CCC(=O)O)C(=O)N[C@H](CCCCN)C(N)=O)NC1=O [compound 155] (HELM PEPTIDE1{[meR].S.D.T.L.[Pen].F.[dE].[dK].[am]}|CHEM1{[O=C(c1ccccc1C[*:2])[*:1]]}$PEPTIDE1,CHEM1,1:R1-1:R1|PEPTIDE1,CHEM1,6:R3-1:R2$$$V2.0) , the value recorded as its half-life is > 3 h

====

Recorded pIC50, one value per entry.
Molecular target: rh integrin α4β7 (Homo sapiens, UniProt P13612+P26010)
Construct: purchased R&D Systems 5397-A30
Sequence (P13612 34-977 limits assumed): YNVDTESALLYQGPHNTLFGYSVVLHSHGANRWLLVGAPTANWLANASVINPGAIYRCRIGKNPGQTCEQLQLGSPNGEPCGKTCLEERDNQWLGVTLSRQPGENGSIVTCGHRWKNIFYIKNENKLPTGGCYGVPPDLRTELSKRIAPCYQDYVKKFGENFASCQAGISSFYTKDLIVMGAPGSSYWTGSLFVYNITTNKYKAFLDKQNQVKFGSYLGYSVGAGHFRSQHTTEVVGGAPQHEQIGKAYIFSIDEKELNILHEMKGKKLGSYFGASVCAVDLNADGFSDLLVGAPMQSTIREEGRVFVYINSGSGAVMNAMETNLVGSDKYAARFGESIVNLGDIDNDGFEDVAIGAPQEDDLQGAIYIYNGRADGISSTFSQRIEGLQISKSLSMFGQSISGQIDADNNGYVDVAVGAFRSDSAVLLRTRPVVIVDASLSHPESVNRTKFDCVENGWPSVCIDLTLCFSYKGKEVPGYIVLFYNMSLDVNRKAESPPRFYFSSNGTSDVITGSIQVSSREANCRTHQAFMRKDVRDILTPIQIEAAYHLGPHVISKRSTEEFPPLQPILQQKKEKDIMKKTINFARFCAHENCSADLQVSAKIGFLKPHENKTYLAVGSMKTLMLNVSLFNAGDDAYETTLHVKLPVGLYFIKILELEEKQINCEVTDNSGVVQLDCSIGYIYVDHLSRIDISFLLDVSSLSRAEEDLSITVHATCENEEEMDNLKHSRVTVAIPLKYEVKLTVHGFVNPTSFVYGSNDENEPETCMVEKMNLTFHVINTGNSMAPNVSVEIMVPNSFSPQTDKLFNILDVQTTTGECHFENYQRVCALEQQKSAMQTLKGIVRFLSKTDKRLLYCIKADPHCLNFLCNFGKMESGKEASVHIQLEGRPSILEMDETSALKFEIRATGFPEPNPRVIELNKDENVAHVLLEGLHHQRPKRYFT
Sequence (P26010 20-723 limits assumed): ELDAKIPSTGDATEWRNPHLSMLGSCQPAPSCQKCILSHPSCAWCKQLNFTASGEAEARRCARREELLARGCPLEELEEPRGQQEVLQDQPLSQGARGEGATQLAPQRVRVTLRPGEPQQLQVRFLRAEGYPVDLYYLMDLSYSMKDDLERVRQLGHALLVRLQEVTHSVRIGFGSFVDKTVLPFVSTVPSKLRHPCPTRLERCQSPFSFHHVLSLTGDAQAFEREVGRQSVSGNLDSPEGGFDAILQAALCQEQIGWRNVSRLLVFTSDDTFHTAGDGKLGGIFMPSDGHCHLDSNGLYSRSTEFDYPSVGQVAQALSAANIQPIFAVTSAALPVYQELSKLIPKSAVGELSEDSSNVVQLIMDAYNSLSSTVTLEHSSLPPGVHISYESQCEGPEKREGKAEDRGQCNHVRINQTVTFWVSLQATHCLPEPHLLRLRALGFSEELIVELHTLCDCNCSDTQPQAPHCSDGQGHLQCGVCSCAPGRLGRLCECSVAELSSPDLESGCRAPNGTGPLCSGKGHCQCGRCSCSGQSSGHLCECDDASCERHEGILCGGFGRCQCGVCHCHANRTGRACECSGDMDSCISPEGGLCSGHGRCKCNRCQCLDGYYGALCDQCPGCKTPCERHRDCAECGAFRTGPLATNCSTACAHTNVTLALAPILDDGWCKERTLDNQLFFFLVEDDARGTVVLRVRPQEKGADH
Assay: α4β7-MAdCAM Competition ELISA
Format: binding
Conditions: thioether monomer peptides, Table 6; read-out: ELISA A4B7
pIC50: −log10 of the molar value. Where a SMILES comes first, the peptide text is derived from it.

{"compound": "CC(C)C[C@@H]1NC(=O)[C@H]([C@@H](C)O)NC(=O)[C@H](CC(=O)O)NC(=O)[C@H](CO)NC(=O)[C@H](CCCNC(=N)N)N(C)C(=O)CCSCC[C@@H](C(=O)N[C@@H](Cc2c[nH]c3ccccc23)C(=O)N[C@H](CCCCN)C(N)=O)NC1=O [compound 57]", "measured-on": "rh integrin α4β7 (Homo sapiens, UniProt P13612+P26010)", "measured-endpoint": "pIC50", "result": "6.00 to 7.00"}
{"compound": "CC(C)C[C@@H]1NC(=O)[C@H]([C@@H](C)O)NC(=O)[C@H](CC(=O)O)NC(=O)[C@H](CO)NC(=O)[C@H](CCCNC(=N)N)N(C)C(=O)c2ccccc2CSC(C)(C)[C@@H](C(=O)N[C@@H](Cc2c[nH]c3ccccc23)C(=O)N[C@H](CCC(=O)O)C(=O)N[C@@H](CO)C(N)=O)NC1=O [compound 100] (HELM PEPTIDE1{[meR].S.D.T.L.[Pen].W.[dE].S.[am]}|CHEM1{[O=C(c1ccccc1C[*:2])[*:1]]}$PEPTIDE1,CHEM1,1:R1-1:R1|PEPTIDE1,CHEM1,6:R3-1:R2$$$V2.0)", "measured-on": "rh integrin α4β7 (Homo sapiens, UniProt P13612+P26010)", "measured-endpoint": "pIC50", "result": "> 7.60"}
{"compound": "CC(C)C[C@@H]1NC(=O)[C@H]([C@@H](C)O)NC(=O)[C@H](CC(=O)O)NC(=O)[C@H](CO)NC(=O)[C@H](CCCNC(=N)N)N(C)C(=O)c2ccccc2CSC(C)(C)[C@@H](C(=O)N[C@H](Cc2ccccc2)C(=O)N[C@@H](CCC(=O)O)C(=O)N[C@H](CCCCN)C(N)=O)NC1=O [compound 72] (HELM PEPTIDE1{[meR].S.D.T.L.[Pen].[dF].E.[dK].[am]}|CHEM1{[O=C(c1ccccc1C[*:2])[*:1]]}$PEPTIDE1,CHEM1,1:R1-1:R1|PEPTIDE1,CHEM1,6:R3-1:R2$$$V2.0)", "measured-on": "rh integrin α4β7 (Homo sapiens, UniProt P13612+P26010)", "measured-endpoint": "pIC50", "result": "> 7.60"}

Please examine the following record next.
Noted pIC50 for CC(C)C[C@@H]1NC(=O)[C@H]([C@@H](C)O)NC(=O)[C@H](CC(=O)O)NC(=O)[C@H](CO)NC(=O)[C@H](CCCNC(=N)N)N(C)C(=O)c2ccccc2CSC(C)(C)[C@@H](C(=O)N[C@@H](Cc2c[nH]c3ccccc23)C(=O)N[C@@H](CCC(=O)O)C(=O)N[C@@H](CCN)C(N)=O)NC1=O [compound 93] (HELM PEPTIDE1{[meR].S.D.T.L.[Pen].W.E.[Dab].[am]}|CHEM1{[O=C(c1ccccc1C[*:2])[*:1]]}$PEPTIDE1,CHEM1,1:R1-1:R1|PEPTIDE1,CHEM1,6:R3-1:R2$$$V2.0) , tested on rh integrin α4β7 (Homo sapiens, UniProt P13612+P26010): > 7.60

Values were extracted from patent US20260217767A1.
